Form field: IC50 (one value per entry).
Measurement target: CYP 3A4 (Homo sapiens, UniProt P08684)
Construct: purchased
Sequence (P08684 whole entry): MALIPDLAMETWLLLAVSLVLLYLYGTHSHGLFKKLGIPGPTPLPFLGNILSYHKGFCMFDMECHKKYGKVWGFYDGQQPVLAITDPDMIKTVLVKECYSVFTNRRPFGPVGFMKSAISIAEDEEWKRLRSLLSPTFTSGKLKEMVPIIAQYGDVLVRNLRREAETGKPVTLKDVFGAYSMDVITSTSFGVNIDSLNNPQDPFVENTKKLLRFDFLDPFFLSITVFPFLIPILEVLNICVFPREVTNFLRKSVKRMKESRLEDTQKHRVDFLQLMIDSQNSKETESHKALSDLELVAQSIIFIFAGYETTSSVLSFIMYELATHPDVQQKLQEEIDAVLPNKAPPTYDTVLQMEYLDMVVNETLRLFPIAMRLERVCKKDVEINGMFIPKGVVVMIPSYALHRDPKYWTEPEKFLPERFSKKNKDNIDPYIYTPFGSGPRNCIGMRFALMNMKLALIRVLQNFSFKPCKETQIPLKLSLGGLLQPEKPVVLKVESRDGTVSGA
Test description: Cytochrome-P450 isoforms liability determination
Format: in vitro ADME
Protocol conditions: fluorescence based kit
Counter-ions that a name gives are not always drawn.
Hi! Could you send only the number? It should be in µM, unit omitted.

Solved cases (4 shown):
Molecule	Unit annotation	IC50
O=C(NO)c1ccc(Cn2cc(-c3ccc(CN4CCCC4)cc3)nn2)cc1	µM	28.3
CN(C)Cc1ccc(-c2cn(Cc3ccc(/C=C/C(=O)NO)cc3)nn2)cc1	µM	28.5
O=C(/C=C/c1cccc(Cn2cc(-c3ccc(CN4CCOCC4)cc3)nn2)c1)NO [Example 25, hydrochloride]	µM	12.6
O=C(NO)c1ccc(Cn2cc(-c3ccc(CN4CCOCC4)cc3)nn2)cc1	µM	43.2

Could you now consider this next molecule?
query: What value of measured IC50 is listed for O=C(/C=C/c1ccc(Cn2cc(-c3ccc(CN4CCCC4)cc3)nn2)cc1)NO ?
result: 53.3
